Recorded ILS at 50 mg/kg by entry
Tested on: Mus musculus
Assay: Percent increase in median life span of BDF1 mice with B-16 melanoma at dose 50 mg/kg administered intraperitoneally
Type: functional
Details: BDF1, B16, ip, route intraperitoneal
quantity: ILS at 50 mg/kg (%)

compound	quantity	reported_measurement
C(/CCc1c2ccccc2c(CC/C=N/NC2=NCCN2)c2ccccc12)=N\NC1=NCCN1.Cl.Cl	ILS at 50 mg/kg	0
CC1(/C=N/NC2=NCCN2)c2ccccc2C(C)(/C=N/NC2=NCCN2)c2ccccc21 (stereo not drawn)	ILS at 50 mg/kg	0
CCCCCCCCCCCCCCCC/N=C(\N)N/N=C/c1c2ccccc2c(/C=N/N/C(N)=N/CCCCCCCCCCCCCCCC)c2ccccc12.Cl.Cl	ILS at 50 mg/kg	0
CCCO.Clc1cccc2c1C(/C=N/NC1=NCCN1)c1cccc(Cl)c1C2/C=N/NC1=NCCN1 (stereo not drawn)	ILS at 50 mg/kg	0
Cl.Cl.S=C(NCCCN1CCOCC1)N/N=C/c1c2ccccc2c(/C=N/NC(=S)NCCCN2CCOCC2)c2ccccc12	ILS at 50 mg/kg	75
Cl.Cl.Fc1cccc2c(/C=N/NC3=NCCN3)c3c(F)cccc3c(/C=N/NC3=NCCN3)c12	ILS at 50 mg/kg	194
Cl.Cl.Clc1cccc2c1C(/C=N/NC1=NCCN1)c1ccccc1C2/C=N/NC1=NCCN1 (stereo not drawn)	ILS at 50 mg/kg	153
CCCCC1(CCCC)CN=C(N/N=C/c2c3ccccc3c(/C=N/NC3=NCC(CCCC)(CCCC)CN3)c3ccccc23)NC1.Cl.Cl	ILS at 50 mg/kg	0

----------
// reported Cures per item
Species on record: Mus musculus
Assay: Cures is the number of survivors of the total treated mice (10) with advanced B-16 melanoma, at 30 days.
Assay type: functional
quantity: Cures

chemical_string	reported_measurement
CN(C)C(=N)N/N=C/c1c2ccccc2c(/C=N/N=C(\N)N(C)C)c2ccccc12	2
C/N=C(\N)N/N=C/c1c2ccccc2c(/C=N/N/C(N)=N/C)c2ccccc12	5
Cl.Cl.Clc1ccc2c(/C=N/NC3=NCCN3)c3ccccc3c(/C=N/NC3=NCCN3)c2c1	0
C(=N\NC1=NCCN1)/c1c2ccccc2c(/C=N/NC2=NCCN2)c2ccccc12	2
Cc1ccc2c(/C=N/NC3=NCCN3)c3ccccc3c(/C=N/NC3=NCCN3)c2c1.Cl.Cl	3

----------
System: Mus musculus
Assay: Percent increase in median life span of BDF1 mice with P-388 leukemia at dose 50 mg/kg administered intraperitoneally
Type: functional
Conditions: BDF1, P388, ip, route intraperitoneal
In this section we review reported ILS at 50 mg/kg values for a set of molecules.

molecule	measurement_units	ILS at 50 mg/kg
N=C(N/N=C/c1c2ccccc2c(/C=N/NC(=N)NC2CCCCC2)c2ccccc12)NC1CCCCC1	%	73
COc1ccc(OC)c2c(/C=N/NC3=NCCN3)c3ccccc3c(/C=N/NC3=NCCN3)c12.Cl.Cl	%	50
Cl.Cl.S=C(NCCN1CCCCC1)N/N=C/c1c2ccccc2c(/C=N/NC(=S)NCCN2CCCCC2)c2ccccc12	%	58
Cl.Cl.Clc1cccc2c1C(/C=N/NC1=NCCN1)c1ccccc1C2/C=N/NC1=NCCN1 (stereo not drawn)	%	100
CC(C)/N=C(/N/N=C/c1c2ccccc2c(/C=N/N=C(NC(C)C)NC(C)C)c2ccccc12)NC(C)C	%	50
Cc1cc2c(cc1C)C(/C=N/NC1=NCCN1)c1ccccc1C2/C=N/NC1=NCCN1 (stereo not drawn)	%	73
Cl.Cl.Cl.Cl.N=C(NCc1ccccn1)N/N=C/c1c2ccccc2c(/C=N/NC(=N)NCc2ccccn2)c2ccccc12	%	95
Cl.Cl.Clc1ccc2c(c1)C(/C=N/NC1=NCCN1)c1ccccc1C2/C=N/NC1=NCCN1 (stereo not drawn)	%	100
C(/CCc1c2ccccc2c(CC/C=N/NC2=NCCN2)c2ccccc12)=N\NC1=NCCN1.Cl.Cl	%	30
Cl.Cl.S=C(NCCN1CCOCC1)N/N=C/c1c2ccccc2c(/C=N/NC(=S)NCCN2CCOCC2)c2ccccc12	%	80
CC1(C)CCC(C)(C)NC(N/N=C/c2c3ccccc3c(/C=N/NC3=NC(C)(C)CCC(C)(C)N3)c3ccccc23)=N1.Cl.Cl	%	0
Cl.Cl.N=C(NCc1cccs1)N/N=C/c1c2ccccc2c(/C=N/NC(=N)NCc2cccs2)c2ccccc12	%	90
Cl.Cl.N=C(N/N=C/c1c2ccccc2c(/C=N/NC(=N)Nc2ccccc2)c2ccccc12)Nc1ccccc1	%	67
